Conditions: in isobutanol, 297.95 K

Mol Smiles	solubility (mole fraction)
O=S(=O)(c1ccccc1)N(F)S(=O)(=O)c1ccccc1	0.00104

---

Settings: in methanol, 292.85 K

Mol Smiles	solubility (mole fraction)
O=S(=O)(c1ccccc1)N(F)S(=O)(=O)c1ccccc1	0.0016

---

Conditions: in ethyl acetate, 307.35 K

Mol Smiles	solubility (mole fraction)
O=S(=O)(c1ccccc1)N(F)S(=O)(=O)c1ccccc1	0.0775

---

Details: in ethyl acetate, 288.35 K

Mol Smiles	solubility (mole fraction)
O=S(=O)(c1ccccc1)N(F)S(=O)(=O)c1ccccc1	0.0415

---

Conditions: in n-pentanol, 292.85 K
Endpoint Name: solubility (mole fraction)

Mol Smiles	Endpoint Name	Test Result
O=S(=O)(c1ccccc1)N(F)S(=O)(=O)c1ccccc1	solubility (mole fraction)	0.00142

---

Conditions: in isobutanol, 307.35 K

Mol Smiles	solubility (mole fraction)
O=S(=O)(c1ccccc1)N(F)S(=O)(=O)c1ccccc1	0.00188

---

Settings: in ethyl acetate, 278.35 K

Mol Smiles	solubility (mole fraction)
O=S(=O)(c1ccccc1)N(F)S(=O)(=O)c1ccccc1	0.0295

---

Conditions: in n-pentanol, 297.95 K

Mol Smiles	solubility (mole fraction)
O=S(=O)(c1ccccc1)N(F)S(=O)(=O)c1ccccc1	0.00186

---

Conditions: in ethyl acetate, 302.65 K
Endpoint Name: solubility (mole fraction)

Mol Smiles	Test Result
O=S(=O)(c1ccccc1)N(F)S(=O)(=O)c1ccccc1	0.0668

---

Settings: in acetone, 297.95 K

Mol Smiles	solubility (mole fraction)
O=S(=O)(c1ccccc1)N(F)S(=O)(=O)c1ccccc1	0.0749

---

Conditions: in n-propanol, 273.35 K

Mol Smiles	solubility (mole fraction)
O=S(=O)(c1ccccc1)N(F)S(=O)(=O)c1ccccc1	0.000452

---

Conditions: in methyl acetate, 292.85 K
Endpoint Name: solubility (mole fraction)

Mol Smiles	Test Result
O=S(=O)(c1ccccc1)N(F)S(=O)(=O)c1ccccc1	0.0583

---

Conditions: in methanol, 278.35 K

Mol Smiles	solubility (mole fraction)
O=S(=O)(c1ccccc1)N(F)S(=O)(=O)c1ccccc1	0.000792

---

Conditions: in ethyl formate, 307.35 K

Mol Smiles	solubility (mole fraction)
O=S(=O)(c1ccccc1)N(F)S(=O)(=O)c1ccccc1	0.0728

---

Conditions: in 2-pentanone, 302.65 K

Mol Smiles	solubility (mole fraction)
O=S(=O)(c1ccccc1)N(F)S(=O)(=O)c1ccccc1	0.0853

---

Conditions: in ethyl acetate, 273.35 K

Mol Smiles	solubility (mole fraction)
O=S(=O)(c1ccccc1)N(F)S(=O)(=O)c1ccccc1	0.0243

---

Conditions: in n-propanol, 312.55 K

Mol Smiles	solubility (mole fraction)
O=S(=O)(c1ccccc1)N(F)S(=O)(=O)c1ccccc1	0.00392

---

Details: in 2-pentanone, 288.35 K

Mol Smiles	solubility (mole fraction)
O=S(=O)(c1ccccc1)N(F)S(=O)(=O)c1ccccc1	0.0534

---

Conditions: in n-pentanol, 278.35 K

Mol Smiles	solubility (mole fraction)
O=S(=O)(c1ccccc1)N(F)S(=O)(=O)c1ccccc1	0.000632

---

Conditions: in isopropanol, 312.55 K
Endpoint Name: solubility (mole fraction)

Mol Smiles	Endpoint Name	Test Result
O=S(=O)(c1ccccc1)N(F)S(=O)(=O)c1ccccc1	solubility (mole fraction)	0.00346

Provenance of the data: BigSolDB 2.1
